Numbers sourced from patent US4451485A.

- Protocol details: in vivo
- Format: in vivo
- Condition info: mouse, in vivo, ip; read-out: Acute toxicity, LD50
Property name: LD50 (mg/kg)

{"Molecule": "C[N+](C)(C)NCCC(=O)[O-] [3-(2,2,2-trimethylhydrazinium)propionate]", "Property name": "LD50", "Value measured": 7850}
